These entries and their values trace back to ChEMBL document CHEMBL3885861.

Parameter TG: see the listing below.
Organism: Rattus norvegicus
Assay: Open TG-GATES - Regimen: Single
Assay type: toxicity, organism-based, Sprague-Dawley
Set-up: regimen Single, gender Male, age 6 weeks
Settings: in vivo, po, 0 mg/kg, 24 h, tissue Plasma, route gavage, dose level Control
The figure you give is taken to be in mg/dL; do not add the unit.

Answered examples (5):
compound: CC(=O)Nc1ccc2c(c1)Cc1ccccc1-2 [2-ACETYLAMINOFLUORENE]
TG, mg/dL: 95.8
--
compound: CC(CCc1ccccc1)NCC(O)c1ccc(O)c(C(N)=O)c1 (stereo unspecified) [LABETALOL]
TG, mg/dL: 82
--
compound: CCN(CC)N=O [N-NITROSODIETHYLAMINE]
TG, mg/dL: 57.8
--
compound: CC(=O)N1CCN(c2ccc(OCC3COC(Cn4ccnc4)(c4ccc(Cl)cc4Cl)O3)cc2)CC1 (stereo unspecified) [KETOCONAZOLE]
TG, mg/dL: 107.6
--
compound: O=C(O)COc1nn(Cc2ccccc2)c2ccccc12 [BENDAZAC]
TG, mg/dL: 102

Please find the next compound below.
Lab note: CC[C@@H](CO)NCCN[C@@H](CC)CO [ETHAMBUTOL] gave TG of 94.6
